B1: PLAGL1 (parent)
chain: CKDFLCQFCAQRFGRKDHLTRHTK

# Variants of: B1
# assayRemarks: protein stability index of a GFP-peptide fusion (GPS, HEK-293T) (PSI 1-6); higher = more stable;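 also: lentivirally expressed fusions sorted by FACS into six bins by GFP to DsRed ratio, PSI derived from sequencing read proportions per bin multiplied by bin number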
# measurementParameters: c terminus: a fixed tail appended
metricName: protein stability index

1. H22S
2.04
2. H18E
1.96
3. K2D
2.02
4. L5A
2.02
5. T23R
1.95
6. L19V
1.99
7. R21M
1.97
